TARGET_DESC: human F508del-CFTR (Homo sapiens, UniProt P13569, DEL508-508)
Sequence (P13569 with tags, fused parts or gaps DEL508-508): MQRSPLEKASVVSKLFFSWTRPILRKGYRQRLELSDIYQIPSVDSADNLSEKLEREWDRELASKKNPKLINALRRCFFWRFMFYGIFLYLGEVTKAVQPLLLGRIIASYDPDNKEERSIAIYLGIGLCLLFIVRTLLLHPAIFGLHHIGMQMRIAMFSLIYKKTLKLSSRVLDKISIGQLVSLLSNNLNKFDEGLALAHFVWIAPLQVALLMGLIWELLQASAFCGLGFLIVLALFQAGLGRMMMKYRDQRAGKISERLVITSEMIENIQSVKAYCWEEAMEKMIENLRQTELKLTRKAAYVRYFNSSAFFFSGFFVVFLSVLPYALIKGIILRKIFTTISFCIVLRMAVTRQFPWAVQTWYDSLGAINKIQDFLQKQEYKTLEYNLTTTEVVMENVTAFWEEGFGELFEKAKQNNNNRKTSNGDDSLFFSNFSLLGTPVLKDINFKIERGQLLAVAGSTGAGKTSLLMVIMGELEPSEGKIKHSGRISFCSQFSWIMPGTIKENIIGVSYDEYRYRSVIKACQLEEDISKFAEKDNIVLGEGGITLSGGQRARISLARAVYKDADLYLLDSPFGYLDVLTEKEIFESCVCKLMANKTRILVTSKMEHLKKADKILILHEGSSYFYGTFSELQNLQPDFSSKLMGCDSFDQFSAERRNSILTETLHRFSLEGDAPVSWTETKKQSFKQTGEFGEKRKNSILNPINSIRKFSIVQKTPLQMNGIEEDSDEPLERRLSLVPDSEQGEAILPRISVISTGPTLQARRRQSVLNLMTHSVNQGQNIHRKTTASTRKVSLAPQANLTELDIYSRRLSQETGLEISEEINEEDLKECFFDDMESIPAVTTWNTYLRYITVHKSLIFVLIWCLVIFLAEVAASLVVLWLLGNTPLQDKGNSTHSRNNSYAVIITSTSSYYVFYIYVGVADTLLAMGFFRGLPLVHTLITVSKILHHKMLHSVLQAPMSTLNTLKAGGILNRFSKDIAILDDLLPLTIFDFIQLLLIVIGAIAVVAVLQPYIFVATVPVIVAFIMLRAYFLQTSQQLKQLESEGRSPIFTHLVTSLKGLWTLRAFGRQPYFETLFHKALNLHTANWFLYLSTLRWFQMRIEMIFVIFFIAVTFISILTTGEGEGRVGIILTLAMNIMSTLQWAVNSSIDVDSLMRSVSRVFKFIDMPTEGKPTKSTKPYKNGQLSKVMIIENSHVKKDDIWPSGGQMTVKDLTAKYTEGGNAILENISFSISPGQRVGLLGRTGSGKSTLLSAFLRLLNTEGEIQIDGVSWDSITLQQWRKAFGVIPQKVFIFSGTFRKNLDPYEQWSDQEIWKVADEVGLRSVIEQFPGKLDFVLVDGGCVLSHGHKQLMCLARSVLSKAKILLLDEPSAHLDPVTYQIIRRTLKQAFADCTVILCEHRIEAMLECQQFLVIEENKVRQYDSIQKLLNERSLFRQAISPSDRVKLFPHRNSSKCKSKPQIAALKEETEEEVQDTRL
PROTOCOL_DETAILS: F508del-CFTR cell surface expression (corrector activity), DiscoveRx ß-galactosidase complementation chemiluminescence assay in recombinant U2OS cell line
EXPERIMENTAL_CONDITIONS: U2OS, in relation to the Emax of the corrector lumacaftor (=100%); U2OS cell line, 16h compound incubation; arithmetic mean values

ENTRY_SMILES: COc1cccc2c1C(=O)N[C@H](C(=O)NCCc1cnccn1)CC(=O)N(C)[C@@H](CC(C)C)C(=O)N(CCC1CCCCC1)CC(=O)N[C@H](Cc1ccccc1)CO2
Emax (%): 117
--
ENTRY_SMILES: COc1nccc2c1C(=O)N[C@H](C(=O)NCCc1ccccc1)CC(=O)N(C)[C@@H](CC(C)C)C(=O)N1CCCC[C@@H]1C(=O)N[C@H](Cc1ccccc1)CO2
Emax (%): 237
--
ENTRY_SMILES: COc1cc(OC)c2c(c1)OC[C@@H](Cc1ccccc1)NC(=O)CN(CCC1CCCCC1)C(=O)[C@H](CC(C)C)N(C)C(=O)C[C@@H](C(=O)NCCc1ccc3c(c1)OCCC3)NC2=O
Emax (%): 333

====

TARGET_DESC: human F508del-CFTR (Homo sapiens, UniProt P13569, DEL508-508)
PROTOCOL_DETAILS: F508del-CFTR cell surface expression (corrector activity), DiscoveRx ß-galactosidase complementation chemiluminescence assay in recombinant U2OS cell line
EXPERIMENTAL_CONDITIONS: EC50, F508del-CFTR cell surface expression, U2OS cells, 16h compound incubation; geomean values
pEC50: −log10 of the molar value.
Recorded pEC50, one value per entry.

COMPOUND: COc1cccc(CCNC(=O)[C@@H]2CC(=O)N(C)[C@@H](CC(C)C)C(=O)N(C)[C@H](COCc3ccccc3)C(=O)N[C@H](Cc3ccccc3)COc3ccc4ccccc4c3C(=O)N2)c1 [Example 713]
pEC50: 7.51
--
COMPOUND: COc1cc(CCNC(=O)[C@@H]2CC(=O)N(C)[C@@H](CC(C)C)C(=O)N3CCC4(CC4)C[C@@H]3C(=O)N[C@H](Cc3ccccc3)COc3cc(C)nc(OC)c3C(=O)N2)on1 [Example 580]
pEC50: 6.70
--
COMPOUND: COc1cccc(CCNC(=O)[C@@H]2CC(=O)N(C)[C@@H](CC(C)C)C(=O)N(C)CC(=O)N[C@H](Cc3ccccc3)COc3ncc4ccccc4c3C(=O)N2)c1 [Example 530]
pEC50: 6.48
--
COMPOUND: [2H]C([2H])([2H])Oc1nc(C)cc2c1C(=O)N[C@H](C(=O)NCCc1cc(C3CC3)on1)CC(=O)N(C)[C@@H](CC(C)C)C(=O)N1CCCC[C@@H]1C(=O)N[C@H](Cc1ccccc1)CO2 [Example 664]
pEC50: 6.64
--
COMPOUND: CC(C)C[C@H]1C(=O)N2CCCC[C@@H]2C(=O)N[C@H](Cc2ccccc2)COc2ccc3ncn(C)c3c2C(=O)N[C@H](C(=O)NCCc2c(F)cccc2F)CC(=O)N1C [Example 485]
pEC50: 6.62
--
COMPOUND: CC(C)C[C@H]1C(=O)N2CCCC[C@@H]2C(=O)N[C@H](Cc2ccccc2)COc2ccncc2C(=O)N[C@H](C(=O)NCCc2ccc3c(c2)OCC3)CC(=O)N1C [Example 593]
pEC50: 6.21
--
COMPOUND: CC(C)C[C@H]1C(=O)N2CCCC[C@H]2C(=O)N[C@H](Cc2ccccc2)COc2cnc3c(F)cccc3c2C(=O)N[C@H](C(=O)NCCc2cc(C3CC3)no2)CC(=O)N1C [Example 500]
pEC50: 6.26
--
COMPOUND: COc1cccc(CCNC(=O)[C@@H]2CC(=O)N(C)[C@@H](CC(C)C)C(=O)N(CCC3CCCCC3)CC(=O)N[C@H](Cc3ccccc3)COc3cc(OC)c(OC)cc3C(=O)N2)c1 [Example 586]
pEC50: 6.66
--
COMPOUND: COc1cccc(CCNC(=O)[C@@H]2CC(=O)N(C)[C@@H](CC(C)C)C(=O)N3CCN(S(=O)(=O)c4ccc5oc(=O)[nH]c5c4)C[C@@H]3C(=O)N[C@H](Cc3ccccc3)COc3ccc4ccccc4c3C(=O)N2)c1 [Example 737]
pEC50: 6.18
--
COMPOUND: CC(C)C[C@H]1C(=O)N2CCCC[C@@H]2C(=O)N[C@H](Cc2ccccc2)COc2ccc3c(c2C(=O)N[C@H](C(=O)NCCc2c(F)cccc2F)CC(=O)N1C)OCC3 [Example 491]
pEC50: 6.68

====

TARGET_DESC: human F508del-CFTR (Homo sapiens, UniProt P13569, DEL508-508)
PROTOCOL_DETAILS: F508del-CFTR cell surface expression (corrector activity), DiscoveRx ß-galactosidase complementation chemiluminescence assay in recombinant U2OS cell line
EXPERIMENTAL_CONDITIONS: U2OS, in relation to Emax of corrector lumacaftor (=100%); arithmetic mean values
Lab note: compare Emax with 300%, writing True if less and False if equal or more.

MOLECULE: CC(C)C[C@H]1C(=O)N(C)C2(CC2)C(=O)N[C@H](Cc2ccccc2)COc2ccc3ncccc3c2C(=O)N[C@H](C(=O)NCCc2noc(C3CC3)n2)CC(=O)N1C [Example 544]
GROUP_LABEL: False
//
MOLECULE: COc1cc2c(cn1)OC[C@@H](Cc1ccccc1)NC(=O)C1(CC1)N(C)C(=O)[C@H](CC(C)C)N(C)C(=O)C[C@@H](C(=O)NCCc1noc(C3CC3)n1)NC2=O [Example 649]
GROUP_LABEL: True
//
MOLECULE: Cc1cc(CCNC(=O)[C@@H]2CC(=O)N(C)[C@@H](CC(C)C)C(=O)N3CCN(C4CC4)C[C@@H]3C(=O)N[C@H](Cc3ccccc3)COc3cnc4ccccc4c3C(=O)N2)on1 [Example 402]
GROUP_LABEL: False
//
MOLECULE: Cc1cc(CCNC(=O)[C@@H]2CC(=O)N(C)[C@@H](CC(C)C)C(=O)N(CC[C@@H]3CCCCO3)CC(=O)N[C@H](Cc3csc4ccccc34)COc3cnc4ccccc4c3C(=O)N2)on1 [Example 703]
GROUP_LABEL: True
//
MOLECULE: CC(C)C[C@H]1C(=O)N(C)C2(CCC2)C(=O)N[C@H](Cc2ccccc2)COc2cnc3ccc(F)cc3c2C(=O)N[C@H](C(=O)NCCc2noc(C3CC3)n2)CC(=O)N1C [Example 691]
GROUP_LABEL: False
//
MOLECULE: Cc1cc(CCNC(=O)[C@@H]2CC(=O)N(C)[C@@H](CC(C)C)C(=O)N3CCN(S(=O)(=O)c4cccnc4)C[C@@H]3C(=O)N[C@H](Cc3ccccc3)COc3ccc4ccccc4c3C(=O)N2)on1 [Example 475]
GROUP_LABEL: False
//
MOLECULE: COc1nccc2c1C(=O)N[C@H](C(=O)NCCc1cc(C3CC3)no1)CC(=O)N(C)[C@@H](CC(C)C)C(=O)N1CC[C@@H](c3ccccc3)C[C@@H]1C(=O)N[C@H](Cc1ccccc1)CO2 [Example 672]
GROUP_LABEL: False
//
MOLECULE: COc1nccc2c1C(=O)N[C@H](C(=O)NCCc1cc(C3CC3)no1)CC(=O)N(C)[C@@H](CC(C)C)C(=O)N1CCC(F)(F)C[C@@H]1C(=O)N[C@H](Cc1ccccc1)CO2 [Example 663]
GROUP_LABEL: True

====

TARGET_DESC: human F508del-CFTR (Homo sapiens, UniProt P13569, DEL508-508)
PROTOCOL_DETAILS: F508del-CFTR cell surface expression (corrector activity), DiscoveRx ß-galactosidase complementation chemiluminescence assay in recombinant U2OS cell line;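 note: U2OS cells co-expressing ProLink-tagged F508del-CFTR and a membrane-anchored enzyme acceptor, where more surface CFTR restores β-galactosidase activity measured by chemiluminescence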
EXPERIMENTAL_CONDITIONS: EC50, F508del-CFTR cell surface expression, U2OS cell line, 16h compound incubation; geomean values
Lab note - cut at 200 nM for EC50: 1 (yes) if strictly below, 0 (no) if not.

COMPOUND: COc1cnn(CCNC(=O)[C@@H]2CC(=O)N(C)[C@@H](CC(C)C)C(=O)N(C)C3(CC3)C(=O)N[C@H](Cc3ccccc3)COc3cnc4ccc(F)cc4c3C(=O)N2)c1
GROUP_LABEL: 0 (no)

COMPOUND: COc1cccc(CCNC(=O)[C@@H]2CC(=O)N(C)[C@@H](CC(C)C)C(=O)N(C)C3(CC3)C(=O)N[C@H](Cc3ccccc3)COc3ccc4ccccc4c3C(=O)N2)c1
GROUP_LABEL: 1 (yes)

COMPOUND: COc1nccc2c1C(=O)N[C@H](C(=O)NCCc1cnn(C3CC3)c1)CC(=O)N(C)[C@@H](CC(C)C)C(=O)N1CCCC[C@@H]1C(=O)N[C@H](Cc1ccccc1)CO2
GROUP_LABEL: 0 (no)

COMPOUND: COc1cc(OC)c2c(c1)OC[C@@H](Cc1ccccc1)NC(=O)CN(CCC1CCCCC1)C(=O)[C@H](C)N(C)C(=O)C[C@@H](C(=O)NCCc1ccc3c(c1)OCO3)NC2=O
GROUP_LABEL: 0 (no)

COMPOUND: CC(C)C[C@H]1C(=O)N(C)CC(=O)N[C@H](Cc2ccccc2)COc2cc3c(cc2C(=O)N[C@H](C(=O)NCCc2ccc4c(c2)OCO4)CC(=O)N1C)OCO3
GROUP_LABEL: 0 (no)

COMPOUND: COc1cc2c(cc1OC)C(=O)N[C@H](C(=O)NCCc1ccc3c(c1)OCO3)CC(=O)N(C)[C@@H](CC(C)C)C(=O)N(CCC(C)(C)OC)CC(=O)N[C@H](Cc1ccccc1)CO2 (mixture of isomers)
GROUP_LABEL: 0 (no)

COMPOUND: CC(C)C[C@H]1C(=O)N(CCC2CCCCC2)CC(=O)N[C@H](Cc2ccccc2)COc2cc3ccccc3cc2C(=O)N[C@H](C(=O)NCCc2ccc3c(c2)OCO3)CC(=O)N1C
GROUP_LABEL: 1 (yes)

COMPOUND: Cc1cc(C)cc(-c2noc(CCNC(=O)[C@@H]3CC(=O)N(C)[C@@H](CC(C)C)C(=O)N4CCCC[C@@H]4C(=O)N[C@H](Cc4ccccc4)COc4cnc5ccccc5c4C(=O)N3)n2)c1
GROUP_LABEL: 0 (no)

COMPOUND: CN1C(=O)C[C@@H](C(=O)NCCc2ccc3c(c2)OCO3)NC(=O)c2c(ccc3ccccc23)OC[C@@H](Cc2ccccc2)NC(=O)CN(CC[C@H]2CCCCO2)C(=O)[C@@H]1CC1CCCCC1 (racemic)
GROUP_LABEL: 1 (yes)
